Each recorded value in this set is attributed to patent US5288709A.

Overview of reported bioavailability across a group of compounds:
PROCEDURE_DETAILS: Pharmacokinetic evaluation in dogs after a 10 mg/kg dose
COND: dog, plasma, po, % ABS (percent absorbance), oral 10 mg/kg, HPLC (parent drug), from AUC (absolute bioavailability)
ASSAY_READOUT: bioavailability (%)

STRUCTURE_AS_SMILES	ASSAY_READOUT	REPORTED_VALUE
CC[C@H]1OC(=O)[C@H](C)[C@@H](O[C@H]2C[C@@](C)(OC)[C@@H](O)[C@H](C)O2)[C@H](C)[C@@H](O[C@@H]2O[C@H](C)C[C@H](N(C)C)[C@H]2O)[C@](C)(O)C[C@@H](C)[C@@H]2O[C@@]1(C)[C@@H](N)[C@H]2C	bioavailability	59
CC[C@H]1OC(=O)[C@H](C)[C@@H](O[C@H]2C[C@@](C)(OC)[C@@H](N)[C@H](C)O2)[C@H](C)[C@@H](O[C@@H]2O[C@H](C)C[C@H](N(C)C)[C@H]2O)[C@](C)(O)C[C@@H](C)[C@@H]2O[C@@]1(C)[C@@H](N)[C@H]2C	bioavailability	43
